assay_system: PIM2 (human) (UniProt Q9P1W9)
Sequence (Q9P1W9 whole entry, looked up): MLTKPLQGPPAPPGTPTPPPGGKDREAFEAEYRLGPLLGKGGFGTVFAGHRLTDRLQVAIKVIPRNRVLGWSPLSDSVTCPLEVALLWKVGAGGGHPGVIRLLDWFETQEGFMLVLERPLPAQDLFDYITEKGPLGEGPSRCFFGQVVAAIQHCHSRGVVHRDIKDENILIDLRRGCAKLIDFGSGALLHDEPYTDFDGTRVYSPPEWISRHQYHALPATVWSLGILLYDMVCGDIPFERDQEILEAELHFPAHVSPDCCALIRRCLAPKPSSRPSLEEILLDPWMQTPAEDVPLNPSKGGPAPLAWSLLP
cond: compound 10.0 µM
# per cent of control annotations
measure: per cent of control (%)

1) CC(C)n1nc(-c2cc3cc(O)ccc3[nH]2)c2c(N)ncnc21 = 36
2) COC(=O)Nc1ccc(-c2nc(N3CCOCC3)c3cnn(C4CCN(C(=O)OC)CC4)c3n2)cc1 = 80
3) CCC(=O)N1CCN(c2ccc(-n3c(=O)ccc4cnc5ccc(-c6cnc7ccccc7c6)cc5c43)cc2C(F)(F)F)CC1 = 96
4) COc1ccc(-c2ccc3c(N4CCOCC4)nc(N4C[C@@H](C)O[C@@H](C)C4)nc3n2)cc1CO = 78

====

assay_system: DYRK1A (human)
cond: compound 10.0 µM
measure: per cent of control (%)

1. CCC(=O)N1CCN(c2ccc(-n3c(=O)ccc4cnc5ccc(-c6cnc7ccccc7c6)cc5c43)cc2C(F)(F)F)CC1 = 75
2. COc1ccc(-c2ccc3c(N4CCOCC4)nc(N4C[C@@H](C)O[C@@H](C)C4)nc3n2)cc1CO = 80
3. CC(C)n1nc(-c2cc3cc(O)ccc3[nH]2)c2c(N)ncnc21 = 55
4. COC(=O)Nc1ccc(-c2nc(N3CCOCC3)c3cnn(C4CCN(C(=O)OC)CC4)c3n2)cc1 = 90

====

assay_system: LYN (human) (UniProt P07948)
Sequence (P07948 whole entry, looked up): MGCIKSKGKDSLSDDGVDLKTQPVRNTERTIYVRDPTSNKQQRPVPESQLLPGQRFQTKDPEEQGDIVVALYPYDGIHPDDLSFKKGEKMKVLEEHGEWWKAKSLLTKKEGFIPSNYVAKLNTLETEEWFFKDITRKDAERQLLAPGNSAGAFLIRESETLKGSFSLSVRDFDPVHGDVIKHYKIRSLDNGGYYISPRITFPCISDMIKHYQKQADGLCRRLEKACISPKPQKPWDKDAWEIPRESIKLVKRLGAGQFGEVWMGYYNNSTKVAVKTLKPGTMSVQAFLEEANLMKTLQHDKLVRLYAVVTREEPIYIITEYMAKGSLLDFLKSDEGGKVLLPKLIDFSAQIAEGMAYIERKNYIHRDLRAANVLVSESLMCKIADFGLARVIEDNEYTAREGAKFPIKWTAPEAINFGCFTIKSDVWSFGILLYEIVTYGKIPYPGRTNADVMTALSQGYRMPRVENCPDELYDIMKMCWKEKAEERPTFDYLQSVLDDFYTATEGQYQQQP
assay_overview: KINOMEscan competition binding
cond: compound 10.0 µM
# kinase still bound, per cent of control annotations
measure: kinase still bound, per cent of control (%)

1. CCC(=O)N1CCN(c2ccc(-n3c(=O)ccc4cnc5ccc(-c6cnc7ccccc7c6)cc5c43)cc2C(F)(F)F)CC1 = 79
2. COc1ccc(-c2ccc3c(N4CCOCC4)nc(N4C[C@@H](C)O[C@@H](C)C4)nc3n2)cc1CO = 100
3. COC(=O)Nc1ccc(-c2nc(N3CCOCC3)c3cnn(C4CCN(C(=O)OC)CC4)c3n2)cc1 = 92
4. CC(C)n1nc(-c2cc3cc(O)ccc3[nH]2)c2c(N)ncnc21 = 12

====

assay_system: UniProt:Q8TD08
Sequence (Q8TD08 whole entry, looked up): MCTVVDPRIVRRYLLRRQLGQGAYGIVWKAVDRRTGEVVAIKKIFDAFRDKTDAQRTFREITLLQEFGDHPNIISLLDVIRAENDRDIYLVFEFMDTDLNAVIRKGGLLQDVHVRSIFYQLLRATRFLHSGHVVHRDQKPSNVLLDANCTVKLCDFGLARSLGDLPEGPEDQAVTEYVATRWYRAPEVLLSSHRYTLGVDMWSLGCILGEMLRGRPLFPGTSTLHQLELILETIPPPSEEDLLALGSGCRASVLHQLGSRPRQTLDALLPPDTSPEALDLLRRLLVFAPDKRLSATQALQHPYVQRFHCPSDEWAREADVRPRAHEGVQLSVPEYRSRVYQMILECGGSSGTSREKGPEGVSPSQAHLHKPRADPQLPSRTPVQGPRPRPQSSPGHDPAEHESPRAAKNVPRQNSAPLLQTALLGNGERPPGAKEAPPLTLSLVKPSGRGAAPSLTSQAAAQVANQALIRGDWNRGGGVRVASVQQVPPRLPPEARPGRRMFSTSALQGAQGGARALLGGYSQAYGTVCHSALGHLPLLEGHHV
cond: compound 1.0 µM
# per cent of control annotations
measure: per cent of control (%)

1) COC(=O)Nc1ccc(-c2nc(N3CCOCC3)c3cnn(C4CCN(C(=O)OC)CC4)c3n2)cc1 = 94
2) CCC(=O)N1CCN(c2ccc(-n3c(=O)ccc4cnc5ccc(-c6cnc7ccccc7c6)cc5c43)cc2C(F)(F)F)CC1 = 78
3) COc1ccc(-c2ccc3c(N4CCOCC4)nc(N4C[C@@H](C)O[C@@H](C)C4)nc3n2)cc1CO = 88
4) CC(C)n1nc(-c2cc3cc(O)ccc3[nH]2)c2c(N)ncnc21 = 50

====

assay_system: CSF1R (human) (UniProt P07333)
Sequence (P07333 whole entry, looked up): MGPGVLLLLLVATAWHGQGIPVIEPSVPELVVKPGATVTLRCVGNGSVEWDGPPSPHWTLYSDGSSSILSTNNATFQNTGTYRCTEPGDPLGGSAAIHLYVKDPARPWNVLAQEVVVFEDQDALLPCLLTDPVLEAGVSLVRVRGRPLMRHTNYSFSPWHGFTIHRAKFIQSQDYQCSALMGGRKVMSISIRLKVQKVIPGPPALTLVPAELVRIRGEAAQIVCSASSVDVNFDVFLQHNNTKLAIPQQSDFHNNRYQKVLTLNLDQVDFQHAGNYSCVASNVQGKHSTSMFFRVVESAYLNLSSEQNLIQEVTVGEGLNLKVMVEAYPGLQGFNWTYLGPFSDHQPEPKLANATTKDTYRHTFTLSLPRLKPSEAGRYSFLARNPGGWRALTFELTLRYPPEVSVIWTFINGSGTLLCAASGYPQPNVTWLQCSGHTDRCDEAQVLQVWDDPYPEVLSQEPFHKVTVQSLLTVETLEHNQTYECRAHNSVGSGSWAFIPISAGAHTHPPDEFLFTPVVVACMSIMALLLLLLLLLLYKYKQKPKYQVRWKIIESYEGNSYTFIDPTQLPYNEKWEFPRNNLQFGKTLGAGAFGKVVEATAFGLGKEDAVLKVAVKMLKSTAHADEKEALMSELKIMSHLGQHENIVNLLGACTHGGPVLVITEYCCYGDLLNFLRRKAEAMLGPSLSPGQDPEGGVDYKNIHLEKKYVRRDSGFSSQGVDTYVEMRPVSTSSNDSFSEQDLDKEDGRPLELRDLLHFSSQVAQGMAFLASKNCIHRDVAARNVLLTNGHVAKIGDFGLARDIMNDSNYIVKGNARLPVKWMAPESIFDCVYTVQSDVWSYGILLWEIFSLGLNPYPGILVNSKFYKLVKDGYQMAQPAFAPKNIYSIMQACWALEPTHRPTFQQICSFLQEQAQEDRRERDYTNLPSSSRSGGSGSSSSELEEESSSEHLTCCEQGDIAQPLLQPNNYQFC
assay_overview: KINOMEscan competition binding
cond: compound 10.0 µM
measure: kinase still bound, per cent of control (%)

1. COC(=O)Nc1ccc(-c2nc(N3CCOCC3)c3cnn(C4CCN(C(=O)OC)CC4)c3n2)cc1 = 90
2. CCC(=O)N1CCN(c2ccc(-n3c(=O)ccc4cnc5ccc(-c6cnc7ccccc7c6)cc5c43)cc2C(F)(F)F)CC1 = 24
3. COc1ccc(-c2ccc3c(N4CCOCC4)nc(N4C[C@@H](C)O[C@@H](C)C4)nc3n2)cc1CO = 90
4. CC(C)n1nc(-c2cc3cc(O)ccc3[nH]2)c2c(N)ncnc21 = 33
